- targetOrSystem: Ybr033w (UniProt P38073)
- Sequence: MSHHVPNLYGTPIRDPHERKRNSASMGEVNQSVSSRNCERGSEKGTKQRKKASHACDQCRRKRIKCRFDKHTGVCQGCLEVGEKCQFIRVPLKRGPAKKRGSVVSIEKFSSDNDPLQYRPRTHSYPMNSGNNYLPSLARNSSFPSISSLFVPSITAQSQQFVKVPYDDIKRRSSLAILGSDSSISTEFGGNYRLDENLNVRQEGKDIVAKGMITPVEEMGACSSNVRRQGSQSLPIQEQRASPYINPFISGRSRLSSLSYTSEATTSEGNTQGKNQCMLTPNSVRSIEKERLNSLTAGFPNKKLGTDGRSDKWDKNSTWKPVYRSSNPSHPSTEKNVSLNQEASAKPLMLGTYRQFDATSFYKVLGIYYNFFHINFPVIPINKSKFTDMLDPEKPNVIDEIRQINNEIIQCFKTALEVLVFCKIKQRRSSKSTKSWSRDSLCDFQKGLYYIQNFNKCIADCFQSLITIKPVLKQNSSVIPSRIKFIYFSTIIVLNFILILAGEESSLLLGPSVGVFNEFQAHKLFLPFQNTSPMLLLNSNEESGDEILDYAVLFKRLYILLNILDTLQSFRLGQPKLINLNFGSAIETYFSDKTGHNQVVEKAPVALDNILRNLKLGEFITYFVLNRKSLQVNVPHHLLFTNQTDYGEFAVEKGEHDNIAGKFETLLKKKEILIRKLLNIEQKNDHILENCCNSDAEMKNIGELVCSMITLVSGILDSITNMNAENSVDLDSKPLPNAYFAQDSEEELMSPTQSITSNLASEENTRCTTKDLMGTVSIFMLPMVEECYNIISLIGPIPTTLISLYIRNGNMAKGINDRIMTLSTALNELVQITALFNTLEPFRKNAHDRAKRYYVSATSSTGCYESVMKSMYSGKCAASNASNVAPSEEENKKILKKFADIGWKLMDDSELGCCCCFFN
- assayOverview: PBM E-score (8-mer binding enrichment) (E-score (-0.5 to 0.5)); higher = stronger / more preferred TF binding
- recordedConditions: protein concentration: 200 nM; construct: GST-full length
In all, about 33,000 sequences were measured (“E-score (-0.5 to 0.5)”: median about -0.012, highest 2% from about 0.29 on). Only a selection was taken, and the highest values are over-represented in it overall.
Rule: PBM E-score of 0.03 or more gives 1.0; anything lower gives 0.0.

## Input Answer whether PBM E-score of AAATTAGG is greater than or equal to 0.03.
## Output 1.0

## Input Answer whether PBM E-score of TAGGAGGA is greater than or equal to 0.03.
## Output 1.0

## Input Answer whether PBM E-score of CAATTATC is greater than or equal to 0.03.
## Output 1.0

## Input Answer whether PBM E-score of AGATAGGA is greater than or equal to 0.03.
## Output 0.0

## Input Answer whether PBM E-score of AAATTATG is greater than or equal to 0.03.
## Output 1.0

## Input Answer whether PBM E-score of AACATACA is greater than or equal to 0.03.
## Output 1.0

## Input Answer whether PBM E-score of CGGGGCAC is greater than or equal to 0.03.
## Output 0.0

## Input Answer whether PBM E-score of ACATTATC is greater than or equal to 0.03.
## Output 1.0

## Input Answer whether PBM E-score of CGATTGGC is greater than or equal to 0.03.
## Output 0.0

## Input Answer whether PBM E-score of GCCCATCA is greater than or equal to 0.03.
## Output 0.0

## Input Answer whether PBM E-score of CGATTATC is greater than or equal to 0.03.
## Output 1.0

* * *

- targetOrSystem: Ybr033w (UniProt P38073)
- Sequence: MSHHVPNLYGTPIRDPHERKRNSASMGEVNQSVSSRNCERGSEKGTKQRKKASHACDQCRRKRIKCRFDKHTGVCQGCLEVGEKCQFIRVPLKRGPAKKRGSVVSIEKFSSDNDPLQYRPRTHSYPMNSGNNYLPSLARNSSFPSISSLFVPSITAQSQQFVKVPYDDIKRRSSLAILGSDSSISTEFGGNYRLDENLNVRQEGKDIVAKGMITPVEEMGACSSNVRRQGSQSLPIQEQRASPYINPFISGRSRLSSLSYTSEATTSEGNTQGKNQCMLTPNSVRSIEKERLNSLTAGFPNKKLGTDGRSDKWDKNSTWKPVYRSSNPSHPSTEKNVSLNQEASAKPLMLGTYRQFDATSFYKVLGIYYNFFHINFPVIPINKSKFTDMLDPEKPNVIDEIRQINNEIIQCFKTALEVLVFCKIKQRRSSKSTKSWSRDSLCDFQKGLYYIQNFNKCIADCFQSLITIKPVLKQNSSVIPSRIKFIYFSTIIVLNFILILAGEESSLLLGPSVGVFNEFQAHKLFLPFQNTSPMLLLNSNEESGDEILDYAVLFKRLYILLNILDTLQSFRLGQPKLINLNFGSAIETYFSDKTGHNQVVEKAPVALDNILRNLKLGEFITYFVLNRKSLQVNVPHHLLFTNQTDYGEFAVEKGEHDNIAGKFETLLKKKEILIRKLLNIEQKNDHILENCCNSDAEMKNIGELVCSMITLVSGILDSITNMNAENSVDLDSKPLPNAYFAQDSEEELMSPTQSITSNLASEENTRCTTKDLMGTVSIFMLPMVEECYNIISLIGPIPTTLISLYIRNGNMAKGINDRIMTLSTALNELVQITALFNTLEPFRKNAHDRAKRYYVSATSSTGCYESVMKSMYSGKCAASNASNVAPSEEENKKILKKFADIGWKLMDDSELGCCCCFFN
- assayOverview: PBM E-score (8-mer binding enrichment) (E-score (-0.5 to 0.5)); higher = stronger / more preferred TF binding
- recordedConditions: protein concentration: 200 nM; construct: GST-full length
Whole data set: some 33,000 sequences, median “E-score (-0.5 to 0.5)” near -0.012, cut for the highest 2% near 0.29. For the sample, the highest values were picked, then their nearest neighbours and some sequences at random.
Please provide measured PBM E-score for the entries that follow.
Output: the number by itself.

## Input Note down PBM E-score recorded for CAAGATTA
## Output 0.185

## Input Note down PBM E-score recorded for AATTACTA
## Output 0.234

## Input Note down PBM E-score recorded for ATAGATTA
## Output 0.329

## Input Note down PBM E-score recorded for AGGATTAG
## Output 0.161

## Input Note down PBM E-score recorded for AGGATTTA
## Output 0.228

## Input Note down PBM E-score recorded for GATTATAA
## Output 0.172

## Input Note down PBM E-score recorded for AATTATTC
## Output 0.423

## Input Note down PBM E-score recorded for AAAGATTA
## Output 0.203

## Input Note down PBM E-score recorded for GTAGATTA
## Output 0.216

* * *

- targetOrSystem: Ybr033w (UniProt P38073)
- Sequence: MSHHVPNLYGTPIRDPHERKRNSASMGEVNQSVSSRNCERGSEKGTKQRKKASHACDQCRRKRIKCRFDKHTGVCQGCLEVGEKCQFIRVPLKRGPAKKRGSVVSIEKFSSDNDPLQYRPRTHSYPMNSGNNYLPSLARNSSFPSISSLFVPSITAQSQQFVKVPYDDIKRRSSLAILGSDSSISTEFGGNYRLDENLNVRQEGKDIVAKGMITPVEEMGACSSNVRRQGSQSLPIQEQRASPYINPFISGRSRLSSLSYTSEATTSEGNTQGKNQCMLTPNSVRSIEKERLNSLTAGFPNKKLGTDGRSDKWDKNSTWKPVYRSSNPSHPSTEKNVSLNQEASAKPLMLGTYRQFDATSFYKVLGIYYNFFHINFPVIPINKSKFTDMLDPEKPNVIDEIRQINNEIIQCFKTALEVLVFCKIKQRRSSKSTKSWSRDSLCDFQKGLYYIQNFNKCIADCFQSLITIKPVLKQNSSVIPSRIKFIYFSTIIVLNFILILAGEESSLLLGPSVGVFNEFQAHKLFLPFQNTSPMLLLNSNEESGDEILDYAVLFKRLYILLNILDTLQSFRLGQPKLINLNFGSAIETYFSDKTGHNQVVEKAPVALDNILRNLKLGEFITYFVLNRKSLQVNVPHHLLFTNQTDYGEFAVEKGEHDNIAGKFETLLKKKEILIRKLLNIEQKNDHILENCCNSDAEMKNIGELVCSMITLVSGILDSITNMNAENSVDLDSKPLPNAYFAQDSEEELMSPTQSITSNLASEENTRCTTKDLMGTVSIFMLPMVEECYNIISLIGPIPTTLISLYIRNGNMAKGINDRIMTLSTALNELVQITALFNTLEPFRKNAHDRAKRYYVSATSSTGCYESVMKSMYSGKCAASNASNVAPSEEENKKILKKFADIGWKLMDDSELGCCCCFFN
- assayOverview: PBM E-score (8-mer binding enrichment) (E-score (-0.5 to 0.5)); higher = stronger / more preferred TF binding
- recordedConditions: protein concentration: 200 nM; construct: GST-full length
Whole data set: some 33,000 sequences, median “E-score (-0.5 to 0.5)” near -0.012, cut for the highest 2% near 0.29. The full list was thinned out, with the highest values kept by preference.
Please provide measured PBM E-score for the entries that follow.
Output: the number by itself.

## Input Note down PBM E-score recorded for TTATATAA
## Output 0.411

## Input Note down PBM E-score recorded for GTATATAA
## Output 0.168

## Input Note down PBM E-score recorded for TCATATAA
## Output 0.179

## Input Note down PBM E-score recorded for GGTAATTA
## Output 0.175
